Where do these numbers come from? They come from ChEMBL document CHEMBL3396962.

- studyTarget: Human immunodeficiency virus type 1 integrase (Human immunodeficiency virus 1, UniProt Q7ZJM1)
- Sequence (Q7ZJM1 whole entry): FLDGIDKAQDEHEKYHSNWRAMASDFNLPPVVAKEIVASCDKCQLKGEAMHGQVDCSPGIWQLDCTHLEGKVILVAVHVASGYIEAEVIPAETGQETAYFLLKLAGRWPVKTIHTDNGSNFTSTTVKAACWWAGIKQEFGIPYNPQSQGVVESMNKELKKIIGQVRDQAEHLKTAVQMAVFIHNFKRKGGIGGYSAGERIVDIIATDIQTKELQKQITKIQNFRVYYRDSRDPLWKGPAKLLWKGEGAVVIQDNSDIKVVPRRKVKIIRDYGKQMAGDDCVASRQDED
pIC50: −log10 of the molar value.
reportedProperty: pIC50

COc1c(C(=O)N2CCN(CCNC(=O)c3cc(O)c(O)c(O)c3)CC2)nc(Cc2ccccc2)n(C)c1=O: 4.73

1: COc1c(C(=O)N2CCN(CCCNC(=O)c3cc(O)c(O)c(O)c3)CC2)nc(Cc2ccc(Cl)c(Cl)c2)n(C)c1=O
2: COc1c(C(=O)N2CCN(CCNC(=O)c3cc(O)c(O)c(O)c3)CC2)nc(Cc2ccc(F)cc2)n(C)c1=O
3: COc1c(C(=O)N2CCN(CCNC(=O)c3cc(O)c(O)c(O)c3)CC2)nc(Cc2ccc(O)cc2)n(C)c1=O
Qu. Place the items in sequence of falling pIC50. To answer, arrange all of the labels according to the requested order.
Ans. 3, 2, 1
(3: 6.15, 2: 5.60, 1: 4.65)
